- Tested on: A549
- Procedure Summary: Cell cycle arrest in human A549 cells assessed as accumulation at S phase at 20 nM after 24 hrs by propidium iodide staining based flow cytometry (reference value: 15 +/- 6%)
- Format: functional
Give measured Activity for each item. Keep answers brief.
Numbers only, in %.

{"Smiles": "COc1cc2c(c(OC)c1OC)-c1ccc(OC)c(=O)cc1[C@@H](NC(=O)c1ccc(Br)cc1)CC2", "Activity / %": 16}
{"Smiles": "COc1cc2c(c(OC)c1OC)-c1ccc(OC)c(=O)cc1[C@@H](NC(=O)c1ccccc1Br)CC2", "Activity / %": 22}
{"Smiles": "COc1cc2c(c(OC)c1OC)-c1ccc(OC)c(=O)cc1[C@@H](NC(=O)c1cccc(Br)c1)CC2", "Activity / %": 16}
{"Smiles": "COc1cc2c(c(OC)c1OC)-c1ccc(OC)c(=O)cc1[C@@H](NC(=O)c1cccc(Cl)c1)CC2", "Activity / %": 15}

Enquiry: Recall the reported Activity of COc1cc2c(c(OC)c1OC)-c1ccc(OC)c(=O)cc1[C@@H](NC(=O)Cc1ccccc1)CC2 when tested on A549.
Return: 16
